Reference source for all entries: patent US20120077731A1

system: T1, Human membrane IL-6R on cells (human, UniProt P08887 20-468)
T1 sequence (looked up): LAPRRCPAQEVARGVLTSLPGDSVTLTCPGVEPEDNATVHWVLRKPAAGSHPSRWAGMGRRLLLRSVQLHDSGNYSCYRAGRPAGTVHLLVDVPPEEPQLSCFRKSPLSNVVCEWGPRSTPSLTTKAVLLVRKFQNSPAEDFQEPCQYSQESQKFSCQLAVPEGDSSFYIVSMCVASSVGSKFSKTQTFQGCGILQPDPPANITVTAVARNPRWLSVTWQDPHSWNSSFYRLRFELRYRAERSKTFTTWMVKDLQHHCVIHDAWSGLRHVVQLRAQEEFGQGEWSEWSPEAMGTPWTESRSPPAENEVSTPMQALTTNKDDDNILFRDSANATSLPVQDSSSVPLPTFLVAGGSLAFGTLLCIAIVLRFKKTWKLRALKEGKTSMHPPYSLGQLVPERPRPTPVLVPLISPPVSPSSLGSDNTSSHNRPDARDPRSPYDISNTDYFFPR
procedureDetails: cell-based or functional assay
recordedMetric: IC50 (nM) + HSA, XG-1 cell proliferation
Give bare numbers, in nM.

IL6R13 (VHH, also called PMP35H4; not shown: C-terminal c-myc and (His)6 tags) VHH: EVQLVESGGGLVQPGGSLRLSCAASGFTFDDYGMSWVRQAPGRATEWVSAISWNGNNTYYTESMKGRFTISRDNAKNTVYLQMNSLKPEDTAVYYCVKGSTAIVGVPPTYPDEYDYWGQGTQVTVSS ... 1.3

Turning now to a further binder:
Sample IL6R04 (VHH, also called PMP32C9; not shown: C-terminal c-myc and (His)6 tags) VHH: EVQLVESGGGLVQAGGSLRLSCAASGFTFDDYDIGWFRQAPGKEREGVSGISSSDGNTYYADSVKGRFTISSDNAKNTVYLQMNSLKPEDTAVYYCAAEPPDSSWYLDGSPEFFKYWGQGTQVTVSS ; IC50 (nM) + HSA, XG-1 cell proliferation observed: 0.1
